molecular target: Human immunodeficiency virus type 1 reverse transcriptase (Human immunodeficiency virus 1); assay: Binding affinity to Human immunodeficiency virus 1 reverse transcriptase
Readings of pEC50 for the listed molecules
Respond using a number only.

INSERT INTO results (molecule, numeric_value) VALUES
  ('CCC(=CCN1Cc2c(Cl)ccc3[nH]c(=S)n(c23)CC1C)CC (centres undefined)', 8.29),
  ('CCC(=CCN1Cc2cc(C)cc3nc(O)n(c23)C[C@@H]1C)CC', 6.51),
  ('C=C(C)CN1Cc2cc(Cl)cc3[nH]c(=O)n(c23)CC1C (centres undefined)', 5.33);

stdin: Fill in the blank: the reported pEC50 of CC(C)=CCN1Cc2c(Br)ccc3nc(S)n(c23)C[C@@H]1C is ____.
stdout: 8.52

stdin: Fill in the blank: the reported pEC50 of CC(C)=CCN1Cc2cc(Cl)cc3nc(S)n(c23)CC1C (centres undefined) is ____.
stdout: 7.04

stdin: Fill in the blank: the reported pEC50 of CC(C)=CCN1Cc2cccc3nc(O)n(c23)CC1C (centres undefined) is ____.
stdout: 5.38

stdin: Fill in the blank: the reported pEC50 of CC(C)=CCN1Cc2cc(Cl)c(Cl)c3nc(S)n(c23)C[C@@H]1C is ____.
stdout: 7.6
